System: L1210 leukemia ip in BDF1 mice, survival T/C
method-description: NCI In Vivo Anticancer Drug Screen. Data for tumor model L1210 Leukemia (intraperitoneal) in B6D2F1 (BDF1) mice
experimental-context: endpoint: mean survival time; dose: 50.0 mg/kg/injection; schedule: Q04DX002 (ip); vehicle: saline with Tween-80; higher = longer survival
Inconclusive results and toxic doses are left out.
reported-metric: T/C

# return recorded T/C for entry `O=C1OC(=O)C(Cl)=C1Cl` 93 % of control

# return recorded T/C for entry `NCCSCCc1ccccc1` 103 % of control

# return recorded T/C for entry `O=[N+]([O-])c1cc([N+](=O)[O-])c2sc3ccccc3c2c1` 97 % of control

# return recorded T/C for entry `CCCc1ccc(OCC=C(C)C)cc1` 100 % of control
